molecular target: PI3Kβ (Homo sapiens (Human), UniProt P42338); assay: Enzymatic activity of PI3K isoforms, TR-FRET assay (PI3Kβ); conditions: 2× Km ATP, geometric mean if more than one value
Sequence (P42338 whole entry, canonical isoform): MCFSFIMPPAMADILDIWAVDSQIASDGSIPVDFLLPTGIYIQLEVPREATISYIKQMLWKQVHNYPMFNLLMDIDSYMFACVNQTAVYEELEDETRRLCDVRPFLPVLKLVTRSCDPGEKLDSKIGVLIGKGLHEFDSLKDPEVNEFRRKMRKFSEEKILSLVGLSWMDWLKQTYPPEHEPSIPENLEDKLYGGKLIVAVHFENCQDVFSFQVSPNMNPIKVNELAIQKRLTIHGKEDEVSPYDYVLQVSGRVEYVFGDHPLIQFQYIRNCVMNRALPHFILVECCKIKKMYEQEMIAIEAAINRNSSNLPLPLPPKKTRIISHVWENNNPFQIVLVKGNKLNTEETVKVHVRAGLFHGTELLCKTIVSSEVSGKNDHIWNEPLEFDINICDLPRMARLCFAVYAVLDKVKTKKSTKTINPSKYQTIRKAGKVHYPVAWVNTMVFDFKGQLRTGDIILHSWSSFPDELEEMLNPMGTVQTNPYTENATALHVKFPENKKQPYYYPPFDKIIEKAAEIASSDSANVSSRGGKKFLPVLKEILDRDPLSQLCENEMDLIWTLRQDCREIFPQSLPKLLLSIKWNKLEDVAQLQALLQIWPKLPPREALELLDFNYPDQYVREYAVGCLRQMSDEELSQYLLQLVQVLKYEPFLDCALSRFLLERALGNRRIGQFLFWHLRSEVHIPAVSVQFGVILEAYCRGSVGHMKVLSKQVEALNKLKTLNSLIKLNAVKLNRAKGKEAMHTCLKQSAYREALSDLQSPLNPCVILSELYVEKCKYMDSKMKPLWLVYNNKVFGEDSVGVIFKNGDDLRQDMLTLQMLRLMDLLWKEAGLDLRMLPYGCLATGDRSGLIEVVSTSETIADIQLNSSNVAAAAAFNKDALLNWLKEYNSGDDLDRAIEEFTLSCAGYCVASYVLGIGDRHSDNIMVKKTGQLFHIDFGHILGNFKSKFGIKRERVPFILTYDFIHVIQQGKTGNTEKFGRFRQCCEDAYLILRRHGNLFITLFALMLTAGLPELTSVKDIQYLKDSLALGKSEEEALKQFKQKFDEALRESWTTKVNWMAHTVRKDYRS
Sequence (P27986 whole entry partner, canonical isoform): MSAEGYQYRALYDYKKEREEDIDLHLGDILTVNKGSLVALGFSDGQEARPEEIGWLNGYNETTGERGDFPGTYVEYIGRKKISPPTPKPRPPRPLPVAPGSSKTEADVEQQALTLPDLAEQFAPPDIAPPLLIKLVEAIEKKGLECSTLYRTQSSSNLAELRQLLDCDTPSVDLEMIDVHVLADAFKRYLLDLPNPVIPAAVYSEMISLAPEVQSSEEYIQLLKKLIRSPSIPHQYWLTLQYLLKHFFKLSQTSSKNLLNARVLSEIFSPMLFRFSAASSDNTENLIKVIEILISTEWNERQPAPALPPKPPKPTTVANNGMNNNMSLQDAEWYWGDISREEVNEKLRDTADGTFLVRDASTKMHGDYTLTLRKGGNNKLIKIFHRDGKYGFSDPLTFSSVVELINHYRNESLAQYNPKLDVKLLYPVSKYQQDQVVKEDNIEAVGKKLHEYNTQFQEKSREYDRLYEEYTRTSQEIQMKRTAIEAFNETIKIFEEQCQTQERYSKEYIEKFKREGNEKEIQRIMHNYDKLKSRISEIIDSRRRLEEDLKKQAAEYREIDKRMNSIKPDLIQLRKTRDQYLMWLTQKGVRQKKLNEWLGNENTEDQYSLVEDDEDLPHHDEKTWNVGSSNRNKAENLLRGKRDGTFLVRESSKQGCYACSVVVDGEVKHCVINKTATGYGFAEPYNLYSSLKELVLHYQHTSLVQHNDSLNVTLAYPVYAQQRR
pIC50: −log10 of the molar value.
Threshold rule: pIC50 greater than or equal to 8 is Y; below that, N.

Solved cases below.
Cc1cc(N)ncc1-n1c([C@H](C)Nc2nc(N)nc(N)c2C#N)nc2cccc(Cl)c2c1=O (atropisomer, axis not shown) [Compound 93] : N
Cc1cc(N)ncc1-n1c([C@@H](Nc2nc(N)nc(N)c2C#N)C2CC2)nc2c(Cl)ccc(Cl)c2c1=O (atropisomer, axis not shown) [Compound 99] : N
C[C@H](Nc1nc(N)nc(N)c1C#N)c1nc2c(Cl)cc(F)cc2c(=O)n1-c1ccc(N)nc1 : Y
Cc1cc(N)ncc1-n1c([C@@H](Nc2nc(N)nc(N)c2C#N)C2CC2)nc2c(Cl)ccc(Cl)c2c1=O (atropisomer, axis not shown) [Compound 98] : N
C[C@H](Nc1nc(N)nc(N)c1Cl)c1nc2c(Cl)ccc(Cl)c2c(=O)n1-c1ccc(N)nc1 : N
CCC[C@H](Nc1nc(N)nc(N)c1C#N)c1nc2cccc(Cl)c2c(=O)n1-c1ccc(N)nc1 : Y

Req: Hi team, for CCC[C@H](Nc1nc(N)nc(N)c1C#N)c1nc2ccc(F)c(Cl)c2c(=O)n1-c1ccc(N)nc1 , is the recorded pIC50 at or above 8?
Resp: N

Req: Hi team, for Nc1ccc(-n2c([C@@H](Nc3nc(N)nc(N)c3Cl)C3CC3)nc3c(F)ccc(Cl)c3c2=O)cn1 , is the recorded pIC50 at or above 8?
Resp: N

Req: Hi team, for C[C@H](Nc1nc(N)nc(N)c1Cl)c1nc2c(Cl)cc(F)cc2c(=O)n1-c1ccc(N)nc1 , is the recorded pIC50 at or above 8?
Resp: N

Req: Hi team, for N#Cc1c(N)nc(N)nc1N[C@H](c1nc2c(F)ccc(Cl)c2c(=O)n1-c1ccc(N)nc1)C1CC1 , is the recorded pIC50 at or above 8?
Resp: Y

Req: Hi team, for CCC[C@H](Nc1nc(N)nc(N)c1Cl)c1nc2ccc(F)c(Cl)c2c(=O)n1-c1ccc(N)nc1 , is the recorded pIC50 at or above 8?
Resp: N

Req: Hi team, for C[C@H](Nc1nc(N)nc(N)c1Cl)c1nc2ccc(F)c(Cl)c2c(=O)n1-c1ccc(N)nc1 , is the recorded pIC50 at or above 8?
Resp: N
